biological target: Kappa-type opioid receptor (Homo sapiens, UniProt P41145); assay: Agonist activity at human recombinant KOR expressed in CHO cells assessed as cAMP accumulation relative to U-69,593; type: functional, cell-based
Sequence (P41145 whole entry): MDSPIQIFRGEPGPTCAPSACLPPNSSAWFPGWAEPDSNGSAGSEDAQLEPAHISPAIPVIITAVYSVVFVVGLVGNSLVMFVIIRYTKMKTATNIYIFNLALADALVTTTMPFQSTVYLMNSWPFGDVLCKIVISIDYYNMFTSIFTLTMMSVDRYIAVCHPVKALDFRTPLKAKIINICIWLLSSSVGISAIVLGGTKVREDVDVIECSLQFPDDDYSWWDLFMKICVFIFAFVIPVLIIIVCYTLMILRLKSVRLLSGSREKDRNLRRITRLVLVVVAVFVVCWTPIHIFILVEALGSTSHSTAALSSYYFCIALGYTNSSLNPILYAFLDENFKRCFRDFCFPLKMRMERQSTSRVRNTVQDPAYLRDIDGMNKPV
# label = met if Emax >= 30% else not met

Example entries and their recorded answers appear below.
| compound | label |
| --- | --- |
| Oc1ccc2c(c1)C13CCN(CC4CC4)C(C2)C12CCC1C3[C@@H](CN1Cc1ccccc1)C2 (some centres not stated) | met |
| Oc1ccc2c(c1)C13CCN(CC4CC4)C(C2)C12CCC1C3[C@@H](CN1c1cnccn1)C2 (some centres not stated) | not met |
| O=C(Oc1ccccc1)N1C[C@H]2CC34CCC1C2C31CCN(CC2CC2)C4Cc2ccc(O)cc21 (some centres not stated) | not met |
| Oc1ccc2c(c1)C13CCN(CC4CC4)C(C2)C12CCC1C3[C@@H](CN1CC1CCCCC1)C2 (some centres not stated) | met |
| Oc1ccc2c(c1)C13CCN(CC4CC4)C(C2)C12CCC1C3[C@@H](CN1c1ccccc1)C2 (some centres not stated) | met |
| O=C(Nc1ccccc1)N1C[C@H]2CC34CCC1C2C31CCN(CC2CC2)C4Cc2ccc(O)cc21 (some centres not stated) | met |

Now let's try a different one.
Q. Emax >= 30% for O=C(c1ccoc1)N1C[C@H]2CC34CCC1C2C31CCN(CC2CC2)C4Cc2ccc(O)cc21 (some centres not stated) ?
A. met

* * *

assay: Apparent permeability at 10 uM incubated for 60 mins by RBT-24 kit; assay type: physicochemical; conditions: rat, not told
measured.metric: Papp at 1 h, 10 µM (×10⁻⁶ cm/s)
Just the number please, in ×10⁻⁶ cm/s, no unit attached.

Q. Give the measured Papp at 1 h, 10 µM of O=C(c1ccccc1)N1C[C@H]2CC34CCC1C2C31CCN(CC2CC2)C4Cc2ccc(O)cc21 (stereo partly specified) .
A. 18.5

* * *

biological target: Mu-type opioid receptor (Homo sapiens, UniProt P35372); experiment: Displacement of [3H]DAMGO from human recombinant MOR expressed in CHO cell membranes
Sequence (P35372 whole entry): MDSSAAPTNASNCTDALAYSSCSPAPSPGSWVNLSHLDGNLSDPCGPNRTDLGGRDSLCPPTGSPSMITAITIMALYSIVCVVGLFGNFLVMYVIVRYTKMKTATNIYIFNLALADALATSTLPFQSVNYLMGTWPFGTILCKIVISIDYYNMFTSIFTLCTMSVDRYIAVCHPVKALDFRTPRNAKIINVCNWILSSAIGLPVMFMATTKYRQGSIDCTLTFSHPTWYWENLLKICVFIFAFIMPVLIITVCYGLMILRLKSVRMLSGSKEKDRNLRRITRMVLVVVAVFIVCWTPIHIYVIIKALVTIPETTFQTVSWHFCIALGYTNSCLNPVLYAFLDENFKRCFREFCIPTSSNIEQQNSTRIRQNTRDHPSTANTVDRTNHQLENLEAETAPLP
# label = fulfilled if Ki < 800 pM else not fulfilled

Example entries and their recorded answers appear below.
| compound | label |
| --- | --- |
| Oc1ccc2c(c1)C13CCN(CC4CC4)C(C2)C12CCC1C3[C@@H](CN1c1ccccc1)C2 (some centres undefined) | not fulfilled |
| Oc1ccc2c(c1)C13CCN(CC4CC4)C(C2)C12CCC1C3[C@@H](CN1Cc1ccccc1)C2 (some centres undefined) | not fulfilled |
| O=C(Nc1ccccc1)N1C[C@H]2CC34CCC1C2C31CCN(CC2CC2)C4Cc2ccc(O)cc21 (some centres undefined) | fulfilled |
| O=C(c1ccccn1)N1C[C@H]2CC34CCC1C2C31CCN(CC2CC2)C4Cc2ccc(O)cc21 (some centres undefined) | fulfilled |
| O=C(c1ccccc1)N1C[C@H]2CC34CCC1C2C31CCN(CC2CC2)C4Cc2ccc(O)cc21 (some centres undefined) | fulfilled |

Q. Does O=C(c1ccoc1)N1C[C@H]2CC34CCC1C2C31CCN(CC2CC2)C4Cc2ccc(O)cc21 (some centres undefined) have Ki strictly under 800 pM?
A. fulfilled

Q. Again, but for Oc1ccc2c(c1)C13CCN(CC4CC4)C(C2)C12CCC1C3[C@@H](CN1CC1CCCCC1)C2 (some centres undefined)
A. not fulfilled

Q. Again, but for O=C(Oc1ccccc1)N1C[C@H]2CC34CCC1C2C31CCN(CC2CC2)C4Cc2ccc(O)cc21 (some centres undefined)
A. not fulfilled

* * *

target: Mu-type opioid receptor (Homo sapiens, UniProt P35372); assay: Agonist activity at human recombinant MOR expressed in CHO cells assessed as cAMP accumulation
Listing of recorded EC50 by entry.
Note to self: number, then unit, no commentary.

| molecule | EC50 |
| --- | --- |
| Oc1ccc2c(c1)C13CCN(CC4CC4)C(C2)C12CCC1C3[C@@H](CN1CC1CCCCC1)C2 (stereo partly drawn) | 21 nM |

Q. Give the measured EC50 of Oc1ccc2c(c1)C13CCN(CC4CC4)C(C2)C12CCC1C3[C@@H](CN1c1ccccc1)C2 (stereo partly drawn) .
A. 10 nM

Q. Again, but for O=C(c1ccoc1)N1C[C@H]2CC34CCC1C2C31CCN(CC2CC2)C4Cc2ccc(O)cc21 (stereo partly drawn)
A. 155 nM

* * *

Listing of recorded Emax by entry.
target: Delta-type opioid receptor (Homo sapiens); test: Agonist activity at human recombinant DOR expressed in CHO cells assessed as cAMP accumulation relative to SNC80; assay type: functional, cell-based
Sequence (P41143 whole entry): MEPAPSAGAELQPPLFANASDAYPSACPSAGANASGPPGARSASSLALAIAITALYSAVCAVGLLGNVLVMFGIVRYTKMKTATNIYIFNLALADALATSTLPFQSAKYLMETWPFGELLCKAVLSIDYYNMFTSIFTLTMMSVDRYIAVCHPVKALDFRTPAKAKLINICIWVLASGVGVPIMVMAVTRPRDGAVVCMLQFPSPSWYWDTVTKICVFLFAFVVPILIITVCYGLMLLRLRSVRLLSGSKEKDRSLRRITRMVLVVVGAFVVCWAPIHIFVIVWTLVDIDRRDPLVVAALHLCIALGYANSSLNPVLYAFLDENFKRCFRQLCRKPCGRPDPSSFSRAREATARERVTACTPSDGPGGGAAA
Just the number please, in %, no unit attached.

| compound | system.tested | Emax / % |
| --- | --- | --- |
| O=C(c1ccccc1)N1C[C@H]2CC34CCC1C2C31CCN(CC2CC2)C4Cc2ccc(O)cc21 (some centres undefined) | Delta-type opioid receptor (Homo sapiens) | 93 |

Q. Lab request: please report Emax under test system Delta-type opioid receptor (Homo sapiens) for Oc1ccc2c(c1)C13CCN(CC4CC4)C(C2)C12CCC1C3[C@@H](CN1Cc1ccccc1)C2 (some centres undefined)
A. 90

Q. Again, but for Oc1ccc2c(c1)C13CCN(CC4CC4)C(C2)C12CCC1C3[C@@H](CN1c1cnccn1)C2 (some centres undefined)
A. 71

Q. Again, but for O=C(Oc1ccccc1)N1C[C@H]2CC34CCC1C2C31CCN(CC2CC2)C4Cc2ccc(O)cc21 (some centres undefined)
A. 92

Q. Again, but for O=C(c1ccoc1)N1C[C@H]2CC34CCC1C2C31CCN(CC2CC2)C4Cc2ccc(O)cc21 (some centres undefined)
A. 93

Q. Again, but for Oc1ccc2c(c1)C13CCN(CC4CC4)C(C2)C12CCC1C3[C@@H](CN1CC1CCCCC1)C2 (some centres undefined)
A. 82

Q. Again, but for O=C(c1ccccn1)N1C[C@H]2CC34CCC1C2C31CCN(CC2CC2)C4Cc2ccc(O)cc21 (some centres undefined)
A. 85

Q. Again, but for Oc1ccc2c(c1)C13CCN(CC4CC4)C(C2)C12CCC1C3[C@@H](CN1c1ccccc1)C2 (some centres undefined)
A. 82

Q. Again, but for O=C(Nc1ccccc1)N1C[C@H]2CC34CCC1C2C31CCN(CC2CC2)C4Cc2ccc(O)cc21 (some centres undefined)
A. 42

* * *

Listing of recorded EC50 by entry.
target: Delta-type opioid receptor (Homo sapiens); assay: Agonist activity at human recombinant DOR expressed in CHO cells assessed as cAMP accumulation
Just the number please, in nM, no unit attached.

Solved entries:
| compound | system.tested | EC50, nM |
| --- | --- | --- |
| O=C(Oc1ccccc1)N1C[C@H]2CC34CCC1C2C31CCN(CC2CC2)C4Cc2ccc(O)cc21 (stereo partly drawn) | Delta-type opioid receptor (Homo sapiens) | 1.3 |
| Oc1ccc2c(c1)C13CCN(CC4CC4)C(C2)C12CCC1C3[C@@H](CN1CC1CCCCC1)C2 (stereo partly drawn) | Delta-type opioid receptor (Homo sapiens) | 1.7 |

Q. Give the measured EC50 of O=C(Nc1ccccc1)N1C[C@H]2CC34CCC1C2C31CCN(CC2CC2)C4Cc2ccc(O)cc21 (stereo partly drawn) .
A. 1.5
